Test system: OVCAR-8
assay.details: Growth inhibition of human OVCAR-8 cells incubated for 48 hrs by sulforhodamine B assay
Format: functional
Listed next: entries and their corresponding GI50.
Give your result in nM as a bare value.

Examples from the recorded data:
In [3]: df
Out[3]:
                                     smiles  quantity_kind  unit_descriptor  meas_value
0  Nc1c(C(=O)Nc2ccccc2)sc2nc3c(cc12)CN(Cc1ccccc1)CC3           GI50               nM       16800
1  Cc1cc(C)c(NC(=O)c2sc3nc4c(cc3c2N)CN(Cc2ccccc2)CC4)c(C)c1           GI50               nM        4720
2  COc1cccc(NC(=O)c2sc3nc4c(cc3c2N)CN(Cc2ccccc2)CC4)c1           GI50               nM        4450
3  CCc1ccccc1NC(=O)c1sc2nc3c(cc2c1N)C(=O)CCC3           GI50               nM        2520
4  CN1CCc2nc3sc(C(N)=O)c(N)c3c(-c3cccs3)c2C1           GI50               nM        2700

Record request: GI50 value, item Cc1ccc(NC(=O)c2sc3nc4c(cc3c2N)C(=O)CCC4)cc1C
3060

Now try CCc1cccc(C)c1NC(=O)c1sc2nc3c(cc2c1N)C(=O)CCC3 .
2130

Now try Cc1cccc(NC(=O)c2sc3nc4c(cc3c2N)C(=O)CCC4)c1 .
17.1
